- Tested on: Escherichia coli IAI1
- EXPERIMENT_NOTES: growth (OD595) fold change vs plate DMSO controls (fold change (ratio)); higher = more growth
- CONDITION_DESCRIPTION: 20 µM; incubation time: 27 h, anaerobic, 37 °C
Reported growth values for the following compounds.
Give only the figure.

Guide cases for growth, answers given:
CCC(CC)Nc1c([N+](=O)[O-])cc(C)c(C)c1[N+](=O)[O-]; 1.01
CN(C)C(=O)Oc1cccc([N+](C)(C)C)c1 [Neostigmine bromide]; 0.975
C#C[C@]1(O)CC[C@H]2[C@@H]3CCC4=CC(=O)CCC4=C3C=C[C@@]21CC; 0.985
CC(C)OC(=O)C(C(=O)OC(C)C)=C1SCCS1; 0.971

Moving on to another compound below.
growth of CCCCc1c(C)nc(NCC)nc1OS(=O)(=O)N(C)C , assay on Escherichia coli IAI1, is 1.04

----------
- Test system: Klebsiella aerogenes DSM 30053
- EXPERIMENT_NOTES: fold change of Histamine concentration vs plate DMSO controls (fold change (ratio)); higher = more amine produced, active = hit call of the paper (significant change in both replicates, either direction)
- CONDITION_DESCRIPTION: 20 µM; incubation time: 27 h, anaerobic, 37 °C
Counter-ions that a name gives are not always drawn.
Answer rule not met if fold change of Histamine concentration is under 1, and rule met if it is 1 or more.

Some solved cases for reference:
CC[C@@H](C(N)=O)N1CCCC1=O [Levetiracetam]; rule not met
Clc1ccc(C(OCCN2CCCCC2)c2ccccc2)cc1 (stereo unspecified) [Cloperastine hydrochloride]; rule not met
C=C(C)[C@@H]1[C@H]2OC(=O)[C@@H]1[C@]1(O)C[C@H]3O[C@]34C(=O)O[C@H]2[C@]14C [Picrotoxinin]; rule not met

Dear colleague, could you confirm whether CC(C)CC(N(C)C)C1(c2ccc(Cl)cc2)CCC1 (stereo unspecified) [Sibutramine hydrochloride] has fold change of Histamine concentration at or above 1?
rule met

----------
Reported fold change of Cadaverine concentration values for the following compounds.
- System: Escherichia coli IAI1
- EXPERIMENT_NOTES: fold change of Cadaverine concentration vs plate DMSO controls (fold change (ratio)); higher = more amine produced, active = hit call of the paper (significant change in both replicates, either direction)
- CONDITION_DESCRIPTION: 20 µM; incubation time: 27 h, anaerobic, 37 °C
Structures can show the parent of a compound that is named as a salt.
Give only the figure.

C[C@@H]1[C@@H](c2ccc(Cl)cc2)SC(=O)N1C(=O)NC1CCCCC1; 0.972
C[C@]12CC[C@H]3[C@@H](CCC4=CC(=O)CC[C@@H]43)[C@@H]1CC[C@@H]2O; 1
CCC(COC(=O)c1cc(OC)c(OC)c(OC)c1)(c1ccccc1)N(C)C (stereo not drawn); 0.997
CC[C@@H](CO)NC(=O)[C@@H]1C=C2c3cccc4[nH]cc(c34)C[C@H]2N(C)C1 [Methylergometrine maleate]; 0.996
Nc1nc(N)nc(NC2CC2)n1; 0.979
COC(=O)N(OC)c1ccccc1COc1ccn(-c2ccc(Cl)cc2)n1; 1.01
O=P1(N(CCCl)CCCl)NCCCO1 (stereo not drawn) [Cyclophosphamide]; 1.02

Moving on to another compound below.
CNC(=O)Oc1ccc2c(c1)[C@]1(C)CCN(C)[C@@H]1N2C [Eserine hemisulfate salt] yielded fold change of Cadaverine concentration of 0.999
